Tested on: OVCAR-8
Assay: Cytotoxicity, standard NCI assay with sulforhodamine B, 96 h
Conditions: Homo sapiens, OVCAR-8, 96 h, read-out: Cytotoxicity (nM, ± SD) OVCAR-8
Sorting guide: entries reporting IC50 beneath 20 nM go in the Condition met pile, the rest go in the Condition not met pile.

compound: C/C(=C\c1ccccn1)[C@@H]1C[C@@H]2N(CCO)[C@]2(C)CCC[C@H](C)[C@H](O)[C@@H](C)C(=O)C(C)(C)[C@@H](O)CC(=O)O1 (some centres unmarked) [Compound 73]
label-class: Condition not met

compound: C/C(=C\c1nc2ccccc2s1)[C@@H]1C[C@@H]2N(CCO)[C@]2(C)CCC[C@H](C)[C@H](O)[C@@H](C)C(=O)C(C)(C)[C@@H](O)CC(=O)O1 (some centres unmarked) [Compound 74]
label-class: Condition not met

compound: CSc1nc(/C=C(\C)[C@@H]2C[C@@H]3N(CCN=[N+]=[N-])[C@]3(C)CCC[C@H](C)[C@H](O)[C@@H](C)C(=O)C(C)(C)[C@@H](O)CC(=O)O2)cs1 (some centres unmarked) [Compound 80]
label-class: Condition met

compound: C/C(=C\c1csc(C)n1)[C@@H]1C[C@@H]2N(CCO)[C@]2(C)CCC[C@H](C)[C@H](O)[C@@H](C)C(=O)C(C)(C)[C@@H](O)CC(=O)O1 (some centres unmarked) [Compound 71]
label-class: Condition met

Then this compound:
Q: Regarding C/C(=C\c1csc(CCN)n1)[C@@H]1C[C@@H]2N(CCO)[C@]2(C)CCC[C@H](C)[C@H](O)[C@@H](C)C(=O)C(C)(C)[C@@H](O)CC(=O)O1 (some centres unmarked) [Compound 76] , kindly confirm whether its IC50 is beneath 20 nM.
Result: Condition met

* * *

Consider the following GI50 values measured on RPMI-8226.

Example entries begin here.
compound: C/C(=C\c1ccn(-c2ccc(N)c(C(F)(F)F)c2)n1)[C@@H]1C[C@@H]2O[C@]2(C)CCC[C@H](C)[C@H](O)[C@@H](C)C(=O)C(C)(C)[C@@H](O)CC(=O)O1 [Compound 11]
target-or-test-system: RPMI-8226
GI50: 9.98 nM

compound: C/C(=C\c1ccn(-c2ccc(N)cc2)n1)[C@@H]1C[C@@H]2O[C@]2(C)CCC[C@H](C)[C@H](O)[C@@H](C)C(=O)C(C)(C)[C@@H](O)CC(=O)O1 [Compound 8]
target-or-test-system: RPMI-8226
GI50: 21.3 nM

compound: C/C(=C\c1ccn(-c2ccc(N)c(F)c2)n1)[C@@H]1C[C@@H]2O[C@]2(C)CCC[C@H](C)[C@H](O)[C@@H](C)C(=O)C(C)(C)[C@@H](O)CC(=O)O1 [Compound 12]
target-or-test-system: RPMI-8226
GI50: < 5 nM

compound: C/C(=C\c1ccn(-c2ccc(N)cc2F)n1)[C@@H]1C[C@@H]2O[C@]2(C)CCC[C@H](C)[C@H](O)[C@@H](C)C(=O)C(C)(C)[C@@H](O)CC(=O)O1 [Compound 14]
target-or-test-system: RPMI-8226
GI50: 19.6 nM

compound: C/C(=C\c1ccn(-c2ccccc2N)n1)[C@@H]1C[C@@H]2O[C@]2(C)CCC[C@H](C)[C@H](O)[C@@H](C)C(=O)C(C)(C)[C@@H](O)CC(=O)O1 [Compound 10]
target-or-test-system: RPMI-8226
GI50: 17.8 nM

Next, consider the following compound.
Q: Value lookup for GI50; key = C/C(=C\c1cc(C(F)(F)F)n(-c2ccc(N)cc2)n1)[C@@H]1C[C@@H]2O[C@]2(C)CCC[C@H](C)[C@H](O)[C@@H](C)C(=O)C(C)(C)[C@@H](O)CC(=O)O1 [Compound 9]
Result: 11.1 nM

* * *

Consider the following GI50 values measured on RXF 393.
Write down the numeric answer in nM and omit the unit.

Example entries begin here.
smiles-string: C/C(=C\c1ccn(-c2ccccc2N)n1)[C@@H]1C[C@@H]2O[C@]2(C)CCC[C@H](C)[C@H](O)[C@@H](C)C(=O)C(C)(C)[C@@H](O)CC(=O)O1
recorded-measurement: 39.6

smiles-string: C/C(=C\c1ccn(-c2ccc(N)cc2F)n1)[C@@H]1C[C@@H]2O[C@]2(C)CCC[C@H](C)[C@H](O)[C@@H](C)C(=O)C(C)(C)[C@@H](O)CC(=O)O1
recorded-measurement: 30.6

smiles-string: C/C(=C\c1ccn(-c2ccc(N)cc2)n1)[C@@H]1C[C@@H]2O[C@]2(C)CCC[C@H](C)[C@H](O)[C@@H](C)C(=O)C(C)(C)[C@@H](O)CC(=O)O1
recorded-measurement: 38.4

smiles-string: C/C(=C\c1cc(C(F)(F)F)n(-c2ccc(N)cc2)n1)[C@@H]1C[C@@H]2O[C@]2(C)CCC[C@H](C)[C@H](O)[C@@H](C)C(=O)C(C)(C)[C@@H](O)CC(=O)O1
recorded-measurement: 40.7

smiles-string: C/C(=C\c1ccn(-c2ccc(N)c(C(F)(F)F)c2)n1)[C@@H]1C[C@@H]2O[C@]2(C)CCC[C@H](C)[C@H](O)[C@@H](C)C(=O)C(C)(C)[C@@H](O)CC(=O)O1
recorded-measurement: 14

Next, consider the following compound.
Q: Value lookup for GI50; key = C/C(=C\c1ccn(-c2ccc(N)c(F)c2)n1)[C@@H]1C[C@@H]2O[C@]2(C)CCC[C@H](C)[C@H](O)[C@@H](C)C(=O)C(C)(C)[C@@H](O)CC(=O)O1
Result: 9.39

* * *

Test system: SNB-75
Experiment: Cytotoxicity, standard NCI assay with sulforhodamine B, 96 h
Assay type: cell-based, human
Conditions: Homo sapiens, SNB-75, 96 h, read-out: Cytotoxicity (nM, ± SD) SNB-75
Sorting guide: entries reporting IC50 beneath 50 nM go in the YES pile, the rest go in the NO pile.

compound: C/C(=C\c1ccccn1)[C@@H]1C[C@@H]2N(CCO)[C@]2(C)CCC[C@H](C)[C@H](O)[C@@H](C)C(=O)C(C)(C)[C@@H](O)CC(=O)O1 (stereo partly drawn)
label-class: NO
//
compound: CSc1nc(/C=C(\C)[C@@H]2C[C@@H]3N(CCN=[N+]=[N-])[C@]3(C)CCC[C@H](C)[C@H](O)[C@@H](C)C(=O)C(C)(C)[C@@H](O)CC(=O)O2)cs1 (stereo partly drawn)
label-class: YES
//
compound: CSc1cc(/C=C(\C)[C@@H]2C[C@@H]3N(CCO)[C@]3(C)CCC[C@H](C)[C@H](O)[C@@H](C)C(=O)C(C)(C)[C@@H](O)CC(=O)O2)nn1C (stereo partly drawn)
label-class: YES
//
compound: C/C(=C\c1nc2ccccc2s1)[C@@H]1C[C@@H]2N(CCO)[C@]2(C)CCC[C@H](C)[C@H](O)[C@@H](C)C(=O)C(C)(C)[C@@H](O)CC(=O)O1 (stereo partly drawn)
label-class: YES

Then this compound:
Q: Regarding CSc1nc(/C=C(\C)[C@@H]2C[C@@H]3N(CCO)[C@]3(C)CCC[C@H](C)[C@H](O)[C@@H](C)C(=O)C(C)(C)[C@@H](O)CC(=O)O2)cs1 (stereo partly drawn) , kindly confirm whether its IC50 is beneath 50 nM.
Result: NO

* * *

System: OVCAR-8
Assay: Cytotoxicity, standard NCI assay with sulforhodamine B, 96 h
Conditions: read-out: cytotoxicity (GI50, nM ± SD) OVCAR-8; OVCAR-8; 96 h at 37° C.; Table 2
assay-readout: GI50 (nM)
Write down the numeric answer in nM and omit the unit.

compound: C/C(=C\c1csc(C)n1)[C@@H]1C[C@@H]2O[C@]2(C)CCC[C@H](C)[C@H](O)[C@@H](C)C(=O)C(C)(C)[C@@H](O)CC(=O)O1 [EpoB, epothilone B, reference compound]
unit-label: nM
GI50: 3.5

compound: C/C(=C\c1csc(C)n1)[C@@H]1C[C@@H]2O[C@@H]2CCC[C@H](C)[C@H](O)[C@@H](C)C(=O)C(C)(C)[C@@H](O)CC(=O)O1
unit-label: nM
GI50: 11

compound: C/C1=C/C[C@@H](/C(C)=C/c2csc(C)n2)OC(=O)C[C@H](O)C(C)(C)C(=O)[C@H](C)[C@@H](O)[C@@H](C)CCC1 [EpoD, epothilone D, reference compound]
unit-label: nM
GI50: 13

Next, consider the following compound.
Q: Value lookup for GI50; key = C/C(=C\c1csc(C)n1)[C@@H]1C/C=C\CCC[C@H](C)[C@H](O)[C@@H](C)C(=O)C(C)(C)[C@@H](O)CC(=O)O1 [EpoC, epothilone C, reference compound]
Result: 110

* * *

System: OVCAR-8
Test: Cytotoxicity, standard NCI assay with sulforhodamine B, 96 h
Conditions: Homo sapiens, OVCAR-8, 96 h, read-out: cytotoxicity (GI50, nM ± SD) OVCAR-8
Listing: GI50 of selected compounds
Write down the numeric answer in nM and omit the unit.

Example entries begin here.
compound: C/C(=C\c1cc(C(F)(F)F)nn1CCNC(=O)OCC[Si](C)(C)C)[C@@H]1C[C@@H]2O[C@]2(C)CCC[C@H](C)[C@H](O)[C@@H](C)C(=O)C(C)(C)[C@@H](O)CC(=O)O1 [Compound 7]
target-or-test-system: OVCAR-8
recorded-measurement: 1300
//
compound: C/C(=C\c1ccn(-c2ccc(N)cc2F)n1)[C@@H]1C[C@@H]2O[C@]2(C)CCC[C@H](C)[C@H](O)[C@@H](C)C(=O)C(C)(C)[C@@H](O)CC(=O)O1 [Compound 14]
target-or-test-system: OVCAR-8
recorded-measurement: 38
//
compound: C/C(=C\c1csc(C)n1)[C@@H]1C[C@@H]2O[C@]2(C)CCC[C@H](C)[C@H](O)[C@@H](C)C(=O)C(C)(C)[C@@H](O)CC(=O)N1 [Ixab, ixabepilone, reference compound]
target-or-test-system: OVCAR-8
recorded-measurement: 35
//
compound: C/C(=C\c1cc(C(F)(F)F)n(-c2ccc(N)cc2)n1)[C@@H]1C[C@@H]2O[C@]2(C)CCC[C@H](C)[C@H](O)[C@@H](C)C(=O)C(C)(C)[C@@H](O)CC(=O)O1 [Compound 9]
target-or-test-system: OVCAR-8
recorded-measurement: 300
//
compound: C/C(=C\c1ccn(-c2ccccc2N)n1)[C@@H]1C[C@@H]2O[C@]2(C)CCC[C@H](C)[C@H](O)[C@@H](C)C(=O)C(C)(C)[C@@H](O)CC(=O)O1 [Compound 10]
target-or-test-system: OVCAR-8
recorded-measurement: 23
//
compound: C/C(=C\c1ccn(-c2ccc(N)c(C(F)(F)F)c2)n1)[C@@H]1C[C@@H]2O[C@]2(C)CCC[C@H](C)[C@H](O)[C@@H](C)C(=O)C(C)(C)[C@@H](O)CC(=O)O1 [Compound 11]
target-or-test-system: OVCAR-8
recorded-measurement: 2.5
//
compound: CC(=O)O[C@H]1C(=O)[C@@]2(C)[C@H]([C@H](OC(=O)c3ccccc3)[C@]3(O)C[C@H](OC(=O)[C@H](O)[C@@H](NC(=O)c4ccccc4)c4ccccc4)C(C)=C1C3(C)C)[C@]1(OC(C)=O)CO[C@@H]1C[C@@H]2O [PTX, paclitaxel, reference compound]
target-or-test-system: OVCAR-8
recorded-measurement: 6.5
//
compound: C/C(=C\c1ccn(-c2ccc(N)cc2)n1)[C@@H]1C[C@@H]2O[C@]2(C)CCC[C@H](C)[C@H](O)[C@@H](C)C(=O)C(C)(C)[C@@H](O)CC(=O)O1 [Compound 8]
target-or-test-system: OVCAR-8
recorded-measurement: 38
//
compound: C/C(=C\c1cc(C(F)(F)F)nn1CCNC(=O)OC(C)(C)C)[C@@H]1C[C@@H]2O[C@]2(C)CCC[C@H](C)[C@H](O)[C@@H](C)C(=O)C(C)(C)[C@@H](O)CC(=O)O1 [Compound 6]
target-or-test-system: OVCAR-8
recorded-measurement: 1200
//
compound: C/C(=C\c1ccn(-c2ccc(N)cc2C(F)(F)F)n1)[C@@H]1C[C@@H]2O[C@]2(C)CCC[C@H](C)[C@H](O)[C@@H](C)C(=O)C(C)(C)[C@@H](O)CC(=O)O1 [Compound 13]
target-or-test-system: OVCAR-8
recorded-measurement: 35

Q: Request - read-out GI50 | tested on OVCAR-8 | compound C/C(=C\c1ccn(-c2ccc(N)c(F)c2)n1)[C@@H]1C[C@@H]2O[C@]2(C)CCC[C@H](C)[C@H](O)[C@@H](C)C(=O)C(C)(C)[C@@H](O)CC(=O)O1 [Compound 12]
Result: 1.8

Q: Request - read-out GI50 | tested on OVCAR-8 | compound CSc1cc(/C=C(\C)[C@@H]2C[C@@H]3O[C@]3(C)CCC[C@H](C)[C@H](O)[C@@H](C)C(=O)C(C)(C)[C@@H](O)CC(=O)O2)n(CCNC(=O)OC(C)(C)C)n1 [Compound 5]
Result: 900
